Hey, just so you know, these numbers are from PubChem BioAssay AID1159580.

Test: chemical genetic growth profiling, strain panel (AID 1159580);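 also: tested at 20 µM; growth read once vehicle control cultures reached saturation at 30 °C; 1 = growth at the plate median or of vehicle wells; lower values mean less growth of the strain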
Conditions: S. cerevisiae deletion strains, growth OD, locus YNR052C, strain pop2, hits give low values
Screen size: about 5,500 compounds; about 2,000 (36%) were called active. Inconclusive results (about 18%) are left out. This is one part of the list.
The label is true (1) for normalized growth below 1 and false (0) for normalized growth equal to or exceeding 1.

Before answering, review these 3 worked examples.
[[record]]
molecule = "O=c1c(O)cc([C@H]2Oc3cc(O)cc(O)c3C[C@H]2O)cc2c([C@H]3Oc4cc(O)cc(O)c4C[C@H]3O)cc(O)c(O)c12"
group_label = "true (1)"

[[record]]
molecule = "Cc1c(C(N)=O)cc([N+](=O)[O-])cc1[N+](=O)[O-]"
group_label = "true (1)"

[[record]]
molecule = "CC1(C)C(=O)CC[C@@]2(C)C1C[C@@H](O)[C@@]1(C)C3=CC(=O)O[C@@H](c4ccoc4)[C@]3(C)CCC21 (some centres not stated)"
group_label = "false (0)"


Input line: Strictly below 1 in normalized growth? CCC(=O)OCC(=O)[C@@]1(OC(=O)CC)[C@@H](C)CC2C3CCC4=CC(=O)C=C[C@]4(C)C3(F)[C@@H](O)C[C@@]21C (some centres not stated)
Output line: true (1)

====

Assay: chemical genetic growth profiling, strain panel (AID 1159580);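 also: tested at 20 µM; growth read once vehicle control cultures reached saturation at 30 °C; 1 = growth at the plate median or of vehicle wells; lower values mean less growth of the strain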
Settings: S. cerevisiae deletion strains, growth OD, locus YER167W, strain BCK2, hits give low values
In all, about 5,500 compounds went through this assay and about 2,000 (36%) were called active. Not shown: some 18% with an inconclusive outcome. Some of the results follow.
MEASURED PARAMETER: normalized growth
Please give only the number in your answer, with no unit.

[[record]]
compound = "C[C@@H]1CC[C@@]23CCC4(C)[C@@](C=CC5[C@@]6(C)CCC(=O)C(C)(C)C6CC[C@]54C)(OC2=O)C3[C@H]1C (stereo partly specified)"
measured_parameter = "normalized growth"
measured = 1.01

[[record]]
compound = "O=C(O)c1ccccc1O"
measured_parameter = "normalized growth"
measured = 1

[[record]]
compound = "CCOC(=O)CC(SP(=S)(OC)OC)C(=O)OCC (stereo unspecified)"
measured_parameter = "normalized growth"
measured = 1.02

[[record]]
compound = "O=C(CCCN1CCC(O)(c2ccc(Cl)cc2)CC1)c1ccc(F)cc1"
measured_parameter = "normalized growth"
measured = 0.839

[[record]]
compound = "NC(=O)c1ccc([N+](=O)[O-])cc1Cl"
measured_parameter = "normalized growth"
measured = 0.978

[[record]]
compound = "Nc1nc(/C(=C/CC(=O)O)C(=O)N[C@@H]2C(=O)N3C(C(=O)O)=CCS[C@H]23)cs1"
measured_parameter = "normalized growth"
measured = 0.985

[[record]]
compound = "NC(=O)c1cc([N+](=O)[O-])cc([N+](=O)[O-])c1"
measured_parameter = "normalized growth"
measured = 1.02

[[record]]
compound = "C[C@H]1[C@H](C)CC[C@]2(C(=O)O)CC[C@]3(C)C(=CCC4[C@@]5(C)C[C@@H](O)[C@H](O)[C@@](C)(CO)C5[C@H](O)C[C@]43C)[C@H]12 (stereo partly specified)"
measured_parameter = "normalized growth"
measured = 0.977

[[record]]
compound = "COc1cc(C(=O)O)cc(OC)c1OC"
measured_parameter = "normalized growth"
measured = 1.03

[[record]]
compound = "CCCCCC(O)C1C(=O)OC(C)C(O)/C=C/C=C/C=C/C=C/C=C(\\C)C(O)CC(O)CC(O)CC(O)CC(O)CC(O)CC1O (stereo unspecified)"
measured_parameter = "normalized growth"
measured = 1.04


Input line: Name the recorded normalized growth of the compound listed here: COP(N)(=O)SC (stereo unspecified)
Output line: 1

Input line: Tell us which normalized growth value is on record for O=C(/C=C(\O)c1ccccc1)c1ccccc1O
Output line: 0.554
